Below is a list of entries, each paired with its recorded half-life at 10 µM value.
method.description: Half life in rat plasma at 10 uM by LC-MS/MS
Format: ADME, cell-free

// worked examples, half-life at 10 µM included
>  <substance.smiles>
CC(C)C[C@@H](CC(=O)O)C(=O)N[C@@H](CO)C(=O)O

>  <half-life at 10 µM>
> 24 h

$$$$
>  <substance.smiles>
CC(C)C[C@@H](CC(=O)N[C@@H](CO)C(=O)O)C(=O)O

>  <half-life at 10 µM>
> 24 h

$$$$
>  <substance.smiles>
CC(C)C[C@H](CC(=O)N[C@@H](CO)C(=O)O)C(=O)O

>  <half-life at 10 µM>
> 24 h

$$$$
>  <substance.smiles>
CC(C)C[C@H](CC(=O)O)C(=O)N[C@@H](CO)C(=O)O

>  <half-life at 10 µM>
> 24 h

$$$$

Now consider a different molecule.
Exam item: Given COC(=O)[C@H](CC(=O)N[C@@H](CO)C(=O)O)CC(C)C , state its recorded half-life at 10 µM.
Marked response: 0.1 h

###

Below is a list of entries, each paired with its recorded logD at 2 h value.
method.description: 1-octanol-PBS distribution coefficient, Log D of the compound at pH 7.4 after 2 hrs by LC-MS analysis
Assay type: physicochemical
Answer with the value's number alone.

// worked examples, logD at 2 h included
>  <substance.smiles>
CC(C)C[C@@H](CC(=O)N[C@@H](CO)C(=O)O)C(=O)O

>  <recorded.result>
-3.4

$$$$
>  <substance.smiles>
CC(C)C[C@@H](CC(=O)O)C(=O)N[C@@H](CO)C(=O)O

>  <recorded.result>
-3.7

$$$$
>  <substance.smiles>
CC(C)C[C@H](CC(=O)O)C(=O)N[C@@H](CO)C(=O)O

>  <recorded.result>
-3.8

$$$$

Now consider a different compound.
Exam item: Given CC(C)C[C@H](CC(=O)N[C@@H](CO)C(=O)O)C(=O)O , state its recorded logD at 2 h.
Marked response: -3.8

###

Recorded below: pIC50, system Angiotensin-converting enzyme (Homo sapiens).
pIC50: −log10 of the molar value.

// worked examples, pIC50 included
>  <substance.smiles>
CC(C)C[C@@H](CC(=O)N[C@@H](CO)C(=O)O)C(=O)O

>  <measured.target>
Angiotensin-converting enzyme (Homo sapiens)
Sequence (P12821 whole entry): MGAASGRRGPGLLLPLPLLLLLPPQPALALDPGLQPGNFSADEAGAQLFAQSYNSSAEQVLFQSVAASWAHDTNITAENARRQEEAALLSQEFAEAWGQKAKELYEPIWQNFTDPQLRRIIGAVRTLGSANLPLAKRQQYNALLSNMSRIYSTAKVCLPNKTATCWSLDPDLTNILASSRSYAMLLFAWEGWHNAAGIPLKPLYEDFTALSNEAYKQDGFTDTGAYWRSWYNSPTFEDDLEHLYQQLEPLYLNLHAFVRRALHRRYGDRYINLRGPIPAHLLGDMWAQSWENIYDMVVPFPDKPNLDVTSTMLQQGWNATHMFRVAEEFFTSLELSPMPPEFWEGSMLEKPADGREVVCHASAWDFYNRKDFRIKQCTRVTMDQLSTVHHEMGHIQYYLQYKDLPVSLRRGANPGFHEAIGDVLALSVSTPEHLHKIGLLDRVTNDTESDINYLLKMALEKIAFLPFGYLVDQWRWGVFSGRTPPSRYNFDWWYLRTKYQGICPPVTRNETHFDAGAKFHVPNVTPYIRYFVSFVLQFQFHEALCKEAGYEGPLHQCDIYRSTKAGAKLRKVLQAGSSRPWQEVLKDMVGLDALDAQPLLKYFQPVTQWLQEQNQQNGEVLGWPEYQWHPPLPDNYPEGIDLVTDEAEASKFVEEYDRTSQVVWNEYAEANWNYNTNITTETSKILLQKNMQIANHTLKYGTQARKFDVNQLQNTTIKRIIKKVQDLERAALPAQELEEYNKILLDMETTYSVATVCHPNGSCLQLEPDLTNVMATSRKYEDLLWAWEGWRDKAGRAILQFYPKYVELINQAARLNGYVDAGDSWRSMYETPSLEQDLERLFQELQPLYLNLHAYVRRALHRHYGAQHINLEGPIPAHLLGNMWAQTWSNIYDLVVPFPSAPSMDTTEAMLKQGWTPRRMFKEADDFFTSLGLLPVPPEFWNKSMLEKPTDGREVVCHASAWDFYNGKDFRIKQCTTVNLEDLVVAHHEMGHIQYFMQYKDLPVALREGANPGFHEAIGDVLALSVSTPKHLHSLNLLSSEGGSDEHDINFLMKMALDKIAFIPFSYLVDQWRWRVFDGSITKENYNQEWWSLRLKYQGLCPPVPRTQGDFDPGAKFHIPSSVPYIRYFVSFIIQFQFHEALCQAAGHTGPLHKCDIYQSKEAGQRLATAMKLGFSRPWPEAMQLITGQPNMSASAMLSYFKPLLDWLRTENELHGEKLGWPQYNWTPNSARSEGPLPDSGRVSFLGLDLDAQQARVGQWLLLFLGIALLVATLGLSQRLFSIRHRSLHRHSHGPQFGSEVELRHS

>  <recorded.result>
< 4.50

$$$$
>  <substance.smiles>
CC(C)C[C@H](CC(=O)O)C(=O)N[C@@H](CO)C(=O)O

>  <measured.target>
Angiotensin-converting enzyme (Homo sapiens)

>  <recorded.result>
< 4.50

$$$$

Exam item: Given CC(C)C[C@H](CC(=O)N[C@@H](CO)C(=O)O)C(=O)O , state its recorded pIC50.
Marked response: < 4.50

###

measured.target: Neprilysin (Homo sapiens)
Sequence (P08473 whole entry): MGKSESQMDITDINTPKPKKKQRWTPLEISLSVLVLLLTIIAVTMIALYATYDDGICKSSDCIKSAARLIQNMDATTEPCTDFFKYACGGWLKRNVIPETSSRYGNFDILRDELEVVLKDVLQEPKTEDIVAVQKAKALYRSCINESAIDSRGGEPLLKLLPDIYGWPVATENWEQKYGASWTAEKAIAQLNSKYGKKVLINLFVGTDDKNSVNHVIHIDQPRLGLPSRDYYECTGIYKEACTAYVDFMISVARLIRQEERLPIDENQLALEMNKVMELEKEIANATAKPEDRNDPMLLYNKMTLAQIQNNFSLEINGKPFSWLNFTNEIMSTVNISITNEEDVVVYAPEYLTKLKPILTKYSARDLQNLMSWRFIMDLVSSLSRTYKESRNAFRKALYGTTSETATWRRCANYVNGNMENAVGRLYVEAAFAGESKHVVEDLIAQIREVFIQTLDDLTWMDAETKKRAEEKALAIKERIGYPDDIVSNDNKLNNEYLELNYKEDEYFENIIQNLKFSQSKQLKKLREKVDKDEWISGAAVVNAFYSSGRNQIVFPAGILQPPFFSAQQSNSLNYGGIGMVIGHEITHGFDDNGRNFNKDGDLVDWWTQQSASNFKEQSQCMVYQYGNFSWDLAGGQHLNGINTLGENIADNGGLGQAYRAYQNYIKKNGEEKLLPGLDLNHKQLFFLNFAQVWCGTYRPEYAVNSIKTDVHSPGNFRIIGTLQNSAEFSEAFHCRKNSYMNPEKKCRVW
Below is a list of entries, each paired with its recorded IC50 value.

Exam item: Record lookup: for Neprilysin (Homo sapiens), what IC50 belongs to COC(=O)C(CC(C)C)C(=O)N[C@H](CO)C(=O)O (mixture of isomers) ?
Marked response: > 1000 µM

Exam item: Record lookup: for Neprilysin (Homo sapiens), what IC50 belongs to COC(=O)[C@H](CC(=O)N[C@H](CO)C(=O)O)CC(C)C ?
Marked response: > 1000 µM

Exam item: Record lookup: for Neprilysin (Homo sapiens), what IC50 belongs to COC(=O)[C@H](CC(C)C)NC(=O)N[C@H](CO)C(=O)O (single isomer, unassigned) ?
Marked response: > 1000 µM

Exam item: Record lookup: for Neprilysin (Homo sapiens), what IC50 belongs to COC(=O)[C@H](CC(C)C)NC(=O)N[C@@H](CO)C(=O)O ?
Marked response: > 1000 µM

Exam item: Record lookup: for Neprilysin (Homo sapiens), what IC50 belongs to CC(C)C[C@@H](CC(=O)N[C@@H](CO)C(=O)O)C(=O)O ?
Marked response: 0.794 µM

###

method.description: Solubility of the compound in PBS buffer at pH 7.4 after 24 hrs by LC-MS/MS analysis
Type: physicochemical
outcome.measure: solubility at 24 h

// worked examples, solubility at 24 h included
>  <substance.smiles>
CC(C)C[C@H](CC(=O)O)C(=O)N[C@@H](CO)C(=O)O

>  <solubility at 24 h>
> 200 µM

$$$$
>  <substance.smiles>
CC(C)C[C@@H](CC(=O)O)C(=O)N[C@@H](CO)C(=O)O

>  <solubility at 24 h>
> 200 µM

$$$$
>  <substance.smiles>
CC(C)C[C@H](CC(=O)N[C@@H](CO)C(=O)O)C(=O)O

>  <solubility at 24 h>
> 200 µM

$$$$
>  <substance.smiles>
COC(=O)[C@H](CC(=O)N[C@@H](CO)C(=O)O)CC(C)C

>  <solubility at 24 h>
160 µM

$$$$

Now consider a different compound.
Exam item: Given CC(C)C[C@@H](CC(=O)N[C@@H](CO)C(=O)O)C(=O)O , state its recorded solubility at 24 h.
Marked response: > 200 µM
